# Assay type: in vivo, human
# EXPERIMENTAL CONDITIONS: human, plasma, po, 20 mg, CLP/F, Group 3: moderate; single oral 20 mg; mean ± SD
QUANTITY MEASURED: CL/F (mL/min)
One number for each entry, in mL/min.

The recorded CL/F for entry CCOCCn1c(C2CCN(CCc3ccc(C(C)(C)C(=O)O)cc3)CC2)nc2ccccc21 [bilastine] equals 248

###

# Type: in vivo, human
# EXPERIMENTAL CONDITIONS: human, plasma, po, 20 mg, tmax, Group 3: moderate; single oral 20 mg; median (range)
QUANTITY MEASURED: Tmax (h)
Answers are plain numbers, in h.

GET /value?item= CCOCCn1c(C2CCN(CCc3ccc(C(C)(C)C(=O)O)cc3)CC2)nc2ccccc21 &field=Tmax returns 2.25

###

# Format: in vivo, human
# EXPERIMENTAL CONDITIONS: human, plasma and urine, po, 20 mg, CLR, Group 3: moderate; single oral 20 mg; mean ± SD
QUANTITY MEASURED: CL renal

For CCOCCn1c(C2CCN(CCc3ccc(C(C)(C)C(=O)O)cc3)CC2)nc2ccccc21 [bilastine] the compound record lists CL renal as 91.5 mL/min

###

# Assay type: in vivo, human
# EXPERIMENTAL CONDITIONS: human, plasma, po, 20 mg, AUC∞, Group 2: mild; single oral 20 mg; mean ± SD
QUANTITY MEASURED: AUC(0-inf) (µg·h/mL)
Numbers only, in µg·h/mL.

AUC(0-inf) reported for this compound CCOCCn1c(C2CCN(CCc3ccc(C(C)(C)C(=O)O)cc3)CC2)nc2ccccc21 : 0.967

###

# Type: in vivo, human
# EXPERIMENTAL CONDITIONS: human, plasma, oral, 20 mg, tmax, median, Test group 2: mild
QUANTITY MEASURED: Tmax (h)
One number for each entry, in h.

get_value(item= CCOCCn1c(C2CCN(CCc3ccc(C(C)(C)C(=O)O)cc3)CC2)nc2ccccc21 , readout=Tmax) returns 1.5

###

# Type: in vivo, human
# EXPERIMENTAL CONDITIONS: human, plasma, po, 20 mg, t½β, Group 3: moderate; single oral 20 mg; mean ± SD
QUANTITY MEASURED: half-life (h)
Give bare numbers, in h.

Record summary for CCOCCn1c(C2CCN(CCc3ccc(C(C)(C)C(=O)O)cc3)CC2)nc2ccccc21 : reported half-life = 10.5

###

# Assay type: in vivo, human
# EXPERIMENTAL CONDITIONS: human, plasma, oral, 20 mg, Cmax, geometric LS mean, Test group 2: mild; ANOVA
QUANTITY MEASURED: Cmax

Item: CCOCCn1c(C2CCN(CCc3ccc(C(C)(C)C(=O)O)cc3)CC2)nc2ccccc21 | Cmax: 167 ng/mL

###

# Format: in vivo, human
# EXPERIMENTAL CONDITIONS: human, plasma, po, 20 mg, tmax, Group 1: healthy; single oral 20 mg; median (range)
QUANTITY MEASURED: Tmax (h)
Give bare numbers, in h.

For record CCOCCn1c(C2CCN(CCc3ccc(C(C)(C)C(=O)O)cc3)CC2)nc2ccccc21 [bilastine] the listed Tmax is 1.5

###

# Type: in vivo, human
# EXPERIMENTAL CONDITIONS: human, plasma, po, 20 mg, t½β, Group 2: mild; single oral 20 mg; mean ± SD
QUANTITY MEASURED: half-life (h)
Answers are plain numbers, in h.

// field: half-life; key: CCOCCn1c(C2CCN(CCc3ccc(C(C)(C)C(=O)O)cc3)CC2)nc2ccccc21 ; value = 15.1

###

# Assay type: in vivo, human
# EXPERIMENTAL CONDITIONS: human, plasma, po, 20 mg, Cmax, Group 2: mild; single oral 20 mg; mean ± SD
QUANTITY MEASURED: Cmax (ng/mL)
Numbers only, in ng/mL.

So for CCOCCn1c(C2CCN(CCc3ccc(C(C)(C)C(=O)O)cc3)CC2)nc2ccccc21 , the logged Cmax turned out to be 172

###

# Assay type: in vivo, human
# EXPERIMENTAL CONDITIONS: human, plasma, po, 20 mg, λz, Group 2: mild; single oral 20 mg; mean ± SD
QUANTITY MEASURED: k el (s⁻¹)
Give bare numbers, in s⁻¹.

k el in this record for CCOCCn1c(C2CCN(CCc3ccc(C(C)(C)C(=O)O)cc3)CC2)nc2ccccc21 [bilastine] : 1.65e-05

###

# Format: in vivo, human
# EXPERIMENTAL CONDITIONS: human, plasma, po, 20 mg, AUC∞, Group 3: moderate; single oral 20 mg; mean ± SD
QUANTITY MEASURED: AUC(0-inf)
Quick note: unit goes after the number.

Entry CCOCCn1c(C2CCN(CCc3ccc(C(C)(C)C(=O)O)cc3)CC2)nc2ccccc21 , AUC(0-inf) reported as 1380 ng·h/mL

###

# Type: in vivo, human
# EXPERIMENTAL CONDITIONS: human, plasma, po, 20 mg, AUClast, Group 3: moderate renal insufficiency (GFR 30–50); single oral 20 mg, fasted; mean ± SD, n = 6
QUANTITY MEASURED: AUC(0-t) (ng·h/mL)
Answers are plain numbers, in ng·h/mL.

Consider CCOCCn1c(C2CCN(CCc3ccc(C(C)(C)C(=O)O)cc3)CC2)nc2ccccc21 [bilastine] . Its measured AUC(0-t) is 1380

###

# Assay type: in vivo, human
# EXPERIMENTAL CONDITIONS: human, plasma and urine, po, 20 mg, CLR, Group 2: mild; single oral 20 mg; mean ± SD
QUANTITY MEASURED: CL renal
Numeric answer plus unit only.

Entry under test: CCOCCn1c(C2CCN(CCc3ccc(C(C)(C)C(=O)O)cc3)CC2)nc2ccccc21 . Its CL renal was 116 mL/min

###

# Type: in vivo, human
# EXPERIMENTAL CONDITIONS: human, plasma, oral, 20 mg, tmax, median, Test group 4: severe
QUANTITY MEASURED: Tmax (h)
Give bare numbers, in h.

Tmax recorded for this compound, CCOCCn1c(C2CCN(CCc3ccc(C(C)(C)C(=O)O)cc3)CC2)nc2ccccc21 , is 1.5

###

# Assay type: in vivo, human
# EXPERIMENTAL CONDITIONS: human, plasma, po, 20 mg, AUClast, Group 2: mild renal insufficiency (GFR 50–80); single oral 20 mg, fasted; mean ± SD, n = 6
QUANTITY MEASURED: AUC(0-t) (ng·h/mL)
Answers are plain numbers, in ng·h/mL.

AUC(0-t) measured on CCOCCn1c(C2CCN(CCc3ccc(C(C)(C)C(=O)O)cc3)CC2)nc2ccccc21 = 947

###

# Assay type: in vivo, human
# EXPERIMENTAL CONDITIONS: human, plasma, po, 20 mg, tmax, Group 4: severe; single oral 20 mg; median (range)
QUANTITY MEASURED: Tmax (h)
Numbers only, in h.

// Tmax value for CCOCCn1c(C2CCN(CCc3ccc(C(C)(C)C(=O)O)cc3)CC2)nc2ccccc21 : 1.5
